System: Mus musculus
experimental protocol: Antiinflammatory activity in NIH mouse assessed as inhibition of TPA-induced mouse ear edema measured per ear administered to right ear relative to untreated control
Format: functional, organism-based
assay endpoint: IC50 (µmol/ear)
The reply should be a number in µmol/ear, with the unit left off.

Give IC50 for CCCCCCCCCCCC(=O)O[C@H]1[C@@H](O[C@]2(COC(C)=O)O[C@H](CO)[C@@H](O)[C@@H]2O)O[C@H](CO)[C@@H](O)[C@@H]1OC(=O)C(C)C
0.34

Give IC50 for CC1=CC[C@H]2C(C)(C)CCC[C@]2(C)[C@H]1C[C@@H](O)/C(C)=C/CO [PHYSACOZTOMATIN]
0.49

Find the measured IC50 of CCCCCCCCCCCC(=O)O[C@H]1[C@@H](O[C@]2(CO)O[C@H](CO)[C@@H](O)[C@@H]2OC(=O)C(C)C)O[C@H](CO)[C@@H](O)[C@@H]1OC(=O)C(C)C and report it.
0.35

Provide one value: measured IC50 of CCCCCCCCCCCC(=O)O[C@H]1[C@@H](O[C@]2(CO)O[C@H](CO)[C@@H](O)[C@@H]2O)O[C@H](CO)[C@@H](O)[C@@H]1OC(=O)C(C)C
0.24

Report measured IC50; entry is CCCCCCCCCCCC(=O)O[C@H]1[C@@H](O[C@]2(COC(C)=O)O[C@H](CO)[C@@H](O)[C@@H]2OC(=O)C(C)C)O[C@H](CO)[C@@H](O)[C@@H]1OC(=O)C(C)C
0.26

Item C=C1[C@H](O)C[C@H]2C(C)(C)CCC[C@]2(C)[C@H]1C[C@@H](O)/C(C)=C/CO [PHYSORDIN] : provide IC50
0.63
